System: ROCK2
applied-conditions: concentration: 1 μM, replicates: in singlicate; n = 1
property-name: %Inh (%)
# unit: % | format: bare number

Inquiry: Entry "CCn1c(-c2ccccn2)nc2cnccc21" : reported %Inh = ?
Reply text: 30

Inquiry: Cool, now O=C(Nc1ccc2c(c1)OCO2)NC1CCN(c2ccnc(Nc3ccc(F)cc3)n2)C1 (stereo not drawn)
Reply text: 3

Inquiry: Cool, now "O=c1cc(N2CCOCC2)nc2n(Cc3cccc(Cl)c3Cl)ccn12"
Reply text: 34

Inquiry: Cool, now "COc1cccc(-c2cc(-c3c[nH]nc3-c3ccccn3)ccn2)c1"
Reply text: 0

Inquiry: Cool, now "Cl.O=C(Nc1cccc(-c2nn3ncccc3c2-c2ccnc(Nc3cccnc3)n2)c1)c1c(F)cccc1F"
Reply text: 0

Inquiry: Cool, now "Cc1cc(N2Cc3ccccc3C2)nc(Nc2ccc(S(=O)(=O)N3CCOCC3)cc2)n1.Cl"
Reply text: 0

Inquiry: Cool, now "COc1ccc(Nc2nccc(-c3cccc(NC(=O)c4cc5cc(F)ccc5[nH]4)c3)n2)cc1"
Reply text: 35

Inquiry: Cool, now "COC(=O)c1c(-c2ccccc2)c2cc(OC)ccc2c(=O)n1Cc1ccccc1"
Reply text: 0

Inquiry: Cool, now "O=C1NC(=O)C(N2CCc3ccccc32)=C1c1ccccc1Cl"
Reply text: 0

====

Test system: RSK3(Kin.Dom.2-C-terminal)
Construct: gene RPS6KA2
applied-conditions: concentration: 1 μM, replicates: in singlicate; n = 1
Kindly state %Inh for each of the entries shown.
# unit: % | format: bare number

Inquiry: Entry Cc1ccccc1-n1cnc2c(N)ncnc21 [SKF-97510] : reported %Inh = ?
Reply text: 8

Inquiry: Cool, now "CC(C)(C)c1ccc(C(=O)Nc2cn3cc(-c4cccnc4)ccc3n2)cc1"
Reply text: 36

Inquiry: Cool, now O=C(Nc1ccc2c(c1)OCO2)NC1CCN(c2ccnc(Nc3ccc(F)cc3)n2)C1 (stereo not shown) [GSK1379724]
Reply text: 0

Inquiry: Cool, now CCn1c(-c2ccccn2)nc2cnccc21 [SB-736398]
Reply text: 0

Inquiry: Cool, now "Cn1ccc2ncnc(Oc3ccc(NC(=O)Nc4ccccc4)cc3)c21"
Reply text: 0

Inquiry: Cool, now Cl.NC(=O)c1cccc(Nc2nccc(Nc3ccc(Oc4cccc(Cl)c4)c(Cl)c3)n2)c1 [GW659008]
Reply text: 18

Inquiry: Cool, now O=S(=O)(c1ccc(-c2ccnc3[nH]ccc23)cc1)N1CCCC1 [GSK846226]
Reply text: 38

Inquiry: Cool, now Cc1c(Cn2ccn3c(=O)cc(N4CCOCC4)nc23)cccc1C(F)(F)F [GSK2289044]
Reply text: 6

Inquiry: Cool, now O=C1NC(=O)C(N2CCc3ccccc32)=C1c1ccccc1Cl [SB-373598]
Reply text: 1

Inquiry: Cool, now Cc1cc(N2Cc3ccccc3C2)nc(Nc2ccc(S(=O)(=O)N3CCOCC3)cc2)n1.Cl [GSK1669917]
Reply text: 7

Inquiry: Cool, now Cl.O=C(Nc1cccc(-c2nn3ncccc3c2-c2ccnc(Nc3cccnc3)n2)c1)c1c(F)cccc1F [GSK312879]
Reply text: 10

Inquiry: Cool, now C[C@@H]1CCCCN1c1cc(-c2ccc3c(N)n[nH]c3c2)nc(N)n1 [GSK2258759]
Reply text: 19

Inquiry: Cool, now Cl.c1ccc(-c2n[nH]cc2-c2ccnc(-c3ccc(CN4CCOCC4)cc3)c2)nc1 [GW776245]
Reply text: 0

Inquiry: Cool, now Nc1nc(-c2nccs2)c(-c2ccnc3ccccc23)s1 [GW693542]
Reply text: 0

Inquiry: Cool, now O=c1cc(N2CCOCC2)nc2n(Cc3cccc(Cl)c3Cl)ccn12 [GSK2286295]
Reply text: 28

Inquiry: Cool, now "Fc1cccc(COc2nnc(-c3ccc4c(c3)CCO4)o2)c1"
Reply text: 22

Inquiry: Cool, now Cc1nnc(-c2ccc3occ(-c4ccc(S(C)=O)cc4)c3c2)[nH]1 (stereo not shown)
Reply text: 7

Inquiry: Cool, now COc1ccc(Nc2nccc(NCCNC(=O)Nc3ccccc3F)n2)cc1 [GSK1379901]
Reply text: 2

Inquiry: Cool, now "Cc1cccc(-c2nc(-c3ccc(S(C)(=O)=O)cc3)sc2-c2ccnc(NCCc3ccccc3)c2)c1"
Reply text: 0

====

// Kd collected for RIOK3
# unit: nM | format: bare number

Inquiry: Entry "O=S(=O)(c1ccc(-c2ccnc3[nH]ccc23)cc1)N1CCCC1" : reported Kd = ?
Reply text: 540

Inquiry: Cool, now COc1cc2ncn(-c3cc(OCC4CCCO4)c(C(N)=O)s3)c2cc1OC (stereo not drawn)
Reply text: 670

====

Kindly state %Inh for each of the entries shown.
Test system: PAK6
applied-conditions: concentration: 1 μM, replicates: in singlicate; n = 1
# unit: % | format: bare number

Inquiry: Entry "CCn1c(-c2cccnc2O)nc2cnccc21" : reported %Inh = ?
Reply text: 0

Inquiry: Cool, now "CC(=O)Nc1nc2cnc(Nc3cc(NC(=O)c4cccc(CCC#N)c4)ccc3C)nc2s1"
Reply text: 19

Inquiry: Cool, now "Cc1ccccc1-n1cnc2c(N)ncnc21"
Reply text: 12

Inquiry: Cool, now "O=S(=O)(c1ccc(-c2ccnc3[nH]ccc23)cc1)N1CCCC1"
Reply text: 20

Inquiry: Cool, now COc1cccc(NC(=O)NC2CCN(c3ccnc(Nc4ccc(F)cc4)n3)C2)c1 (stereo not drawn)
Reply text: 0

Inquiry: Cool, now COc1cc2ncn(-c3cc(OCC4CCCO4)c(C(N)=O)s3)c2cc1OC (stereo not drawn)
Reply text: 0

Inquiry: Cool, now "Cl.c1ccc(-c2n[nH]cc2-c2ccnc(-c3ccc(CN4CCOCC4)cc3)c2)nc1"
Reply text: 14

Inquiry: Cool, now "Fc1cc(Cl)ccc1Nc1ccnc2cc(-c3ccc(CN4CCCCC4)o3)ccc12"
Reply text: 0

Inquiry: Cool, now "O=C(Nc1n[nH]c2nc(-c3nccs3)c(Br)cc12)C1CCCC1"
Reply text: 0

====

Kindly state %Inh for each of the entries shown.
System: SGK3
applied-conditions: concentration: 1 μM, replicates: in singlicate; n = 1
# unit: % | format: bare number

Inquiry: Entry "Cc1ccc(C(=O)Nc2ccc(Nc3ccnc4cc(-c5ccccn5)ccc34)cc2O)cc1.Cl" : reported %Inh = ?
Reply text: 0

Inquiry: Cool, now COc1cccc(NC(=O)NC2CCN(c3ccnc(Nc4ccc(F)cc4)n3)C2)c1 (stereo not drawn)
Reply text: 0

Inquiry: Cool, now "Cc1cccc(-c2cc(Nc3ccncc3)c3ccccc3n2)n1"
Reply text: 0

====

Kindly state %Inh for each of the entries shown.
Test system: NEK11
applied-conditions: concentration: 1 μM, replicates: in singlicate; n = 1
# unit: % | format: bare number

Inquiry: Entry "Cl.c1ccc(-c2n[nH]cc2-c2ccnc(-c3ccc(CN4CCOCC4)cc3)c2)nc1" : reported %Inh = ?
Reply text: 0

Inquiry: Cool, now "CS(=O)(=O)c1ccc(-c2nc3n(c2-c2ccncc2)CCC3)cc1"
Reply text: 0

Inquiry: Cool, now "CC(=O)Nc1nc2cnc(Nc3cc(NC(=O)c4cccc(CCC#N)c4)ccc3C)nc2s1"
Reply text: 0

Inquiry: Cool, now "O=C(Nc1ccccc1)Nc1cccc(Oc2ccc3nccn3n2)c1"
Reply text: 0

Inquiry: Cool, now "Nc1ncnc2[nH]c(-c3ccccc3)nc12"
Reply text: 71

Inquiry: Cool, now "Cc1cccc(-c2nc(-c3ccc(S(C)(=O)=O)cc3)sc2-c2ccnc(NCCc3ccccc3)c2)c1"
Reply text: 0

Inquiry: Cool, now "Cn1cncc1-c1ccc2ncnc(Nc3ccc(OCc4ccccc4)cc3)c2c1"
Reply text: 0

Inquiry: Cool, now "Cl.Oc1ccc(-c2nc(-c3ccccc3)[nH]c2-c2ccncc2)cc1"
Reply text: 24

Inquiry: Cool, now "O=S(=O)(c1ccc(-c2ccnc3[nH]ccc23)cc1)N1CCCC1"
Reply text: 0

Inquiry: Cool, now "Cc1cccc(-c2nc(Nc3ccncc3)c3ccccc3n2)n1"
Reply text: 0

Inquiry: Cool, now "Cc1ccccc1-n1cnc2c(N)ncnc21"
Reply text: 0

Inquiry: Cool, now "Cl.NC(=O)c1cccc(Nc2nccc(Nc3ccc(Oc4cccc(Cl)c4)c(Cl)c3)n2)c1"
Reply text: 0

Inquiry: Cool, now "COc1ccc(Nc2nccc(NCCNC(=O)Nc3ccccc3F)n2)cc1"
Reply text: 0

Inquiry: Cool, now "CS(=O)(=O)c1ccc(-c2c(-c3ncn[nH]3)sc(N3CCOCC3)c2C#N)cc1"
Reply text: 0

Inquiry: Cool, now "COc1ccccc1-c1ccc2c(NC(=O)C3CC3)n[nH]c2n1"
Reply text: 33

Inquiry: Cool, now "COc1ccccc1CNC(=O)c1cc(C(=O)c2ccccc2C)c[nH]1"
Reply text: 0

Inquiry: Cool, now "O=C1NC(=O)C(N2CCc3ccccc32)=C1c1ccccc1Cl"
Reply text: 0

Inquiry: Cool, now "Cl.O=C(Nc1cccc(-c2nn3ncccc3c2-c2ccnc(Nc3cccnc3)n2)c1)c1c(F)cccc1F"
Reply text: 0

Inquiry: Cool, now "Cc1csc(-c2nc(Nc3ccncc3)c3ccccc3n2)n1"
Reply text: 9

====

System: LOK
Construct: gene STK10
applied-conditions: concentration: 1 μM, replicates: in singlicate; n = 1
Kindly state %Inh for each of the entries shown.
Include the unit after the number when you answer.

Inquiry: Which measured %Inh belongs to "CN1C(=O)C(Nc2ccc(Cl)c(C(=O)O)c2)=C(c2ccc(Cl)cc2)C1=O" , tested on LOK?
Reply text: 4%

Inquiry: Cool, now "Cc1cc(NCC(c2ccccc2)c2ccccc2)nc(NCc2ccc(C(F)(F)F)cc2)n1"
Reply text: 0%

Inquiry: Cool, now "Cc1ccc(NC(=O)Nc2cc(C(C)(C)C)nn2-c2ccccc2)cc1"
Reply text: 60%

Inquiry: Cool, now "Cc1cccc(-c2nc(C)cc(Nc3ccncc3)n2)n1"
Reply text: 0%

Inquiry: Cool, now COc1cc2ncn(-c3cc(OCC4CCCO4)c(C(N)=O)s3)c2cc1OC (stereo not shown)
Reply text: 96.9%

Inquiry: Cool, now "COc1cc2nccc(Nc3ccc(NC(=O)c4ccc(C)cc4)c(O)c3)c2cc1OC.Cl"
Reply text: 0%

Inquiry: Cool, now CC1=C(C(=O)Nc2cc3cn[nH]c3cc2F)C(c2ccc(C(F)(F)F)cc2)CC(=O)N1 (stereo not shown)
Reply text: 0%

Inquiry: Cool, now "COc1ccccc1-c1ccc2c(NC(=O)C3CC3)n[nH]c2n1"
Reply text: 0%

Inquiry: Cool, now "CN(C)CCN(C)C(=O)c1cc(-c2ccncc2)c(-c2ccc(Cl)c(O)c2)o1.Cl.Cl"
Reply text: 72%

Inquiry: Cool, now Cc1nnc(-c2ccc3occ(-c4ccc(S(C)=O)cc4)c3c2)[nH]1 (stereo not shown)
Reply text: 98.7%

Inquiry: Cool, now "COc1ccc(C2=C(Nc3cccc(C(=O)O)c3)C(=O)NC2=O)cc1"
Reply text: 28%

Inquiry: Cool, now "CCn1c(-c2cccnc2O)nc2cnccc21"
Reply text: 0%

Inquiry: Cool, now "COC(=O)c1c(-c2ccccc2)c2cc(C(=O)O)ccc2c(=O)n1Cc1ccccc1"
Reply text: 0%

Inquiry: Cool, now "Cc1c(O)cccc1Nc1ccnc2ccc(C(F)(F)F)cc12.Cl"
Reply text: 0%

Inquiry: Cool, now "Cc1ccc(NC(=O)Nc2cccc(Cl)c2)cc1-c1ccc(C(=O)Nc2ccncc2)cc1"
Reply text: 0%

Inquiry: Cool, now "Cc1ccccc1-n1cnc2c(N)ncnc21"
Reply text: 0%

Inquiry: Cool, now "Cn1ccc2ncnc(Oc3ccc(Nc4nc5ccccc5[nH]4)cc3)c21"
Reply text: 93.7%

Inquiry: Cool, now "CC(C)(C)c1ccc(C(=O)Nc2cn3cc(-c4cccnc4)ccc3n2)cc1"
Reply text: 79%

Inquiry: Cool, now "Cn1ccc2ncnc(Oc3cccc(C(=O)Nc4ccccc4)c3)c21"
Reply text: 0%

Inquiry: Cool, now "O=C(Nc1n[nH]c2nc(-c3nccs3)c(Br)cc12)C1CCCC1"
Reply text: 0%

Inquiry: Cool, now "COc1cc2ncnc(Nc3ccc4nc(-c5ccccc5)[nH]c4c3)c2cc1OC.Cl"
Reply text: 5%

Inquiry: Cool, now "CC(=O)Nc1nc2cnc(Nc3cc(NC(=O)c4cccc(CCC#N)c4)ccc3C)nc2s1"
Reply text: 0%

src = paper PMC5540273
